Origin of measurements: paper PMC9516332

The molecules listed here are annotated with their inhibition at 1 µM.
biological target: panel of 255 wild-type kinases (Homo sapiens); assay: Kinase panel profiling at 1 µmol/L (MSA or IMAP), percentage inhibition; format: biochemical; conditions: kinase PIM1; 1 µmol/L single concentration; read-out: %-inhibition at 1 µmol/L, PIM1
Don't forget the unit after the value.

Below, each entry is followed by its recorded inhibition at 1 µM result.
{"record_smiles": "CCN1C(=O)N(c2c(F)c(OC)cc(OC)c2F)Cc2cnc3[nH]c(CN4CCOCC4)cc3c21", "target_system": "panel of 255 wild-type kinases (Homo sapiens)", "inhibition at 1 µM": "-7%"}
{"record_smiles": "COc1cc2ncnc(Nc3ccc(F)c(Cl)c3)c2cc1NC(=O)/C=C/CN1CCCCC1", "target_system": "panel of 255 wild-type kinases (Homo sapiens)", "inhibition at 1 µM": "32%"}
{"record_smiles": "Cn1cnc2c(F)c(Nc3ccc(Br)cc3F)c(C(=O)NOCCO)cc21", "target_system": "panel of 255 wild-type kinases (Homo sapiens)", "inhibition at 1 µM": "-16%"}

Please give the measured inhibition at 1 µM for this molecule: `CCc1nc(C(N)=O)c(Nc2ccc(N3CCC(N4CCN(C)CC4)CC3)c(OC)c2)nc1NC1CCOCC1`
6%

====

biological target: panel of 255 wild-type kinases (Homo sapiens, UniProt Q9H0K1); test: Kinase panel profiling at 1 µmol/L (MSA or IMAP), percentage inhibition; format: biochemical; conditions: kinase QIK; 1 µmol/L single concentration; read-out: %-inhibition at 1 µmol/L, QIK
Sequence (Q9H0K1 whole entry): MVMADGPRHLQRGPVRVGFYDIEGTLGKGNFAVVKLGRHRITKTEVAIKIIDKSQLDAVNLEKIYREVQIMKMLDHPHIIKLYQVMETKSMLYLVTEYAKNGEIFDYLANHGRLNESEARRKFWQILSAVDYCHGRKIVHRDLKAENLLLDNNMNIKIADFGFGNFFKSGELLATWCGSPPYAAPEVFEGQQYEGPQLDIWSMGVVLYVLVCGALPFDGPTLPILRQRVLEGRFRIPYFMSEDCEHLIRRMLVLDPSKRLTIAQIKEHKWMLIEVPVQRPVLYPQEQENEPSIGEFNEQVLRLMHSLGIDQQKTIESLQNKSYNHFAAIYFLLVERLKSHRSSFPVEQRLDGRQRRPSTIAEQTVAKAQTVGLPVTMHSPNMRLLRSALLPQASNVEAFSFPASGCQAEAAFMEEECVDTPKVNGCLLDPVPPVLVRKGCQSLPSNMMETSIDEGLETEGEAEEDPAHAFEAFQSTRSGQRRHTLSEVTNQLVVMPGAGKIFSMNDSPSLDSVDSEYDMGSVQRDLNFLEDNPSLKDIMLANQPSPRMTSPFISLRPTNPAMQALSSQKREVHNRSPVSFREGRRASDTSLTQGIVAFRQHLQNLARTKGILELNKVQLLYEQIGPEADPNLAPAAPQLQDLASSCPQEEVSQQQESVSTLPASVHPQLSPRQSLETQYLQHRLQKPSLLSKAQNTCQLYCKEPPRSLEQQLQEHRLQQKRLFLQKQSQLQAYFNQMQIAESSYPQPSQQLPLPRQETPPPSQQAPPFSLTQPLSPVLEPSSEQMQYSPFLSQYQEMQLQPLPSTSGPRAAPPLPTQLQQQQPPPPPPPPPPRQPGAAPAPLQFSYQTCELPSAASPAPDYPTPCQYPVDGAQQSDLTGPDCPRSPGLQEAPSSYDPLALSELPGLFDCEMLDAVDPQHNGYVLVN
This listing pairs compounds with measured inhibition at 1 µM.
Please don't drop the unit; write it after the number.

{"record_smiles": "CCN1CCN(c2ccc(Nc3cc(N(C)C(=O)Nc4c(Cl)c(OC)cc(OC)c4Cl)ncn3)cc2)CC1", "inhibition at 1 µM": "26%"}

Report inhibition at 1 µM for `Cc1cc(Nc2ncnc3ccc(NC4=NC(C)(C)CO4)cc23)ccc1Oc1ccn2ncnc2c1` please.
-2.58%

Name the reported inhibition at 1 µM value associated with the compound `Cn1cnc2c(F)c(Nc3ccc(Br)cc3Cl)c(C(=O)NOCCO)cc21`
-4%

====

target: panel of 255 wild-type kinases (Homo sapiens); assay: Kinase panel profiling at 1 µmol/L (MSA or IMAP), percentage inhibition; type: biochemical; conditions: kinase Haspin; 1 µmol/L single concentration; read-out: %-inhibition at 1 µmol/L, Haspin
Property: inhibition at 1 µM; scope: individual molecules
Field note: include the unit after the figure.

# get_value(readout= inhibition at 1 µM, system= panel of 255 wild-type kinases (Homo sapiens)) for `C=CC(=O)N1CCC([C@@H]2CCNc3c(C(N)=O)c(-c4ccc(Oc5ccccc5)cc4)nn32)CC1`
-1.75%

So what inhibition at 1 µM did `COc1cc2ncnc(Nc3ccc(F)c(Cl)c3)c2cc1NC(=O)/C=C/CN1CCCCC1` get with panel of 255 wild-type kinases (Homo sapiens)?
13%

Find inhibition at 1 µM (panel of 255 wild-type kinases (Homo sapiens)) for the entry `C[C@H]1Oc2cc(cnc2N)-c2c(nn(C)c2C#N)CN(C)C(=O)c2ccc(F)cc21`
0.865%

Query the reported inhibition at 1 µM for panel of 255 wild-type kinases (Homo sapiens); item: `Cn1cnc2c(F)c(Nc3ccc(Br)cc3Cl)c(C(=O)NOCCO)cc21`
3.64%

====

target: panel of 255 wild-type kinases (Homo sapiens); test: Kinase panel profiling at 1 µmol/L (MSA or IMAP), percentage inhibition; type: biochemical; details: kinase CLK1; 1 µmol/L single concentration; read-out: %-inhibition at 1 µmol/L, CLK1
assay_readout: inhibition at 1 µM
Include the unit right after the number.

{"record_smiles": "CCN1CCN(c2ccc(Nc3cc(N(C)C(=O)Nc4c(Cl)c(OC)cc(OC)c4Cl)ncn3)cc2)CC1", "assay_readout": "inhibition at 1 µM", "measured": "10%"}

Record request: inhibition at 1 µM value, item `C=CC(=O)N1CCC([C@@H]2CCNc3c(C(N)=O)c(-c4ccc(Oc5ccccc5)cc4)nn32)CC1`
4.66%

Consider the compound `CCN1C(=O)N(c2c(F)c(OC)cc(OC)c2F)Cc2cnc3[nH]c(CN4CCOCC4)cc3c21` and give its measured inhibition at 1 µM.
5%

Could you share which inhibition at 1 µM value was measured for `COc1cc2ncnc(Nc3ccc(F)c(Cl)c3)c2cc1NC(=O)/C=C/CN1CCCCC1` ?
19%

====

Attribute: pIC50
tested on: 134 cancer cell lines; experiment: Cell viability assay (ATPlite, 72 hours), IC50 on cancer cell line panel; details: Homo sapiens, U2OS, read-out: IC50 in cell proliferation assay, cell line U2OS
pIC50 here: minus log base 10 of the concentration, concentration in moles per litre.

{"record_smiles": "COc1ccc(CN2C3CC2CN(c2ccc(-c4cc(OCC(C)(C)O)cn5ncc(C#N)c45)cn2)C3)cn1", "measured": 5.32}
{"record_smiles": "O=C(c1ccc(F)c(F)c1Nc1ccc(I)cc1F)N1CC(O)([C@@H]2CCCCN2)C1", "measured": 6.55}
{"record_smiles": "CCc1nc(C(N)=O)c(Nc2ccc(N3CCC(N4CCN(C)CC4)CC3)c(OC)c2)nc1NC1CCOCC1", "measured": 6.65}
{"record_smiles": "COC(=O)N[C@@H](C)CNc1nccc(-c2cn(C(C)C)nc2-c2cc(Cl)cc(NS(C)(=O)=O)c2F)n1", "measured": 5.84}
{"record_smiles": "CN1CCN(c2ccc(C(=O)Nc3n[nH]c4ccc(Cc5cc(F)cc(F)c5)cc34)c(NC3CCOCC3)c2)CC1", "measured": 5.35}
{"record_smiles": "CO[C@]1(C(=O)N[C@@H](C)c2ccc(-n3cc(F)cn3)nc2)CC[C@H](c2nc(C)cc(Nc3cc(C)[nH]n3)n2)CC1", "measured": 5.57}

Proceed to the following item.
Which value of pIC50 has been reported for `C[C@H](Nc1ncnc2nc[nH]c12)c1cc2cccc(Cl)c2c(=O)n1-c1ccccc1` in the records?
5.05

====

target: panel of 255 wild-type kinases (Homo sapiens); experiment: Kinase panel profiling at 1 µmol/L (MSA or IMAP), percentage inhibition; assay type: biochemical; settings: kinase PKD3; 1 µmol/L single concentration; read-out: %-inhibition at 1 µmol/L, PKD3
Reported inhibition at 1 µM by item:
Supply the numeric figure in %, leaving out any unit text.

Some molecules with recorded inhibition at 1 µM:
{"record_smiles": "Cc1cc(Nc2ncnc3ccc(NC4=NC(C)(C)CO4)cc23)ccc1Oc1ccn2ncnc2c1", "inhibition at 1 µM / %": 39}
{"record_smiles": "CCc1nc(C(N)=O)c(Nc2ccc(N3CCC(N4CCN(C)CC4)CC3)c(OC)c2)nc1NC1CCOCC1", "inhibition at 1 µM / %": 53}
{"record_smiles": "CN1CCN(c2ccc(C(=O)Nc3n[nH]c4ccc(Cc5cc(F)cc(F)c5)cc34)c(NC3CCOCC3)c2)CC1", "inhibition at 1 µM / %": 3}
{"record_smiles": "CO[C@]1(C(=O)N[C@@H](C)c2ccc(-n3cc(F)cn3)nc2)CC[C@H](c2nc(C)cc(Nc3cc(C)[nH]n3)n2)CC1", "inhibition at 1 µM / %": 3}
{"record_smiles": "C=CC(=O)N1CCC([C@@H]2CCNc3c(C(N)=O)c(-c4ccc(Oc5ccccc5)cc4)nn32)CC1", "inhibition at 1 µM / %": 13}
{"record_smiles": "CCN1CCN(c2ccc(Nc3cc(N(C)C(=O)Nc4c(Cl)c(OC)cc(OC)c4Cl)ncn3)cc2)CC1", "inhibition at 1 µM / %": 11}
{"record_smiles": "Cn1cc(-c2cc3c(N4CCN(c5ncc([C@@](C)(N)c6ccc(F)cc6)cn5)CC4)ncnn3c2)cn1", "inhibition at 1 µM / %": 8}
{"record_smiles": "COc1ccc(CN2C3CC2CN(c2ccc(-c4cc(OCC(C)(C)O)cn5ncc(C#N)c45)cn2)C3)cn1", "inhibition at 1 µM / %": 12}

Can you look up the measured inhibition at 1 µM of `COc1cc2ncnc(Nc3ccc(F)c(Cl)c3)c2cc1NC(=O)/C=C/CN1CCCCC1` for me?
8

Param item = `COC(=O)N[C@@H](C)CNc1nccc(-c2cn(C(C)C)nc2-c2cc(Cl)cc(NS(C)(=O)=O)c2F)n1` ; retrieve measured inhibition at 1 µM.
5

I am curious: what inhibition at 1 µM value has been reported for `O=C(Nc1cnn2ccc(N3CCC[C@@H]3c3cc(F)ccc3F)nc12)N1CC[C@H](O)C1` ?
8

====

molecular target: panel of 255 wild-type kinases (Homo sapiens, UniProt Q9UBS0); test: Kinase panel profiling at 1 µmol/L (MSA or IMAP), percentage inhibition; type: biochemical; conditions: p70S6Kβ; 1 µmol/L single concentration; read-out: %-inhibition, p70S6Kβ
Sequence (Q9UBS0 whole entry): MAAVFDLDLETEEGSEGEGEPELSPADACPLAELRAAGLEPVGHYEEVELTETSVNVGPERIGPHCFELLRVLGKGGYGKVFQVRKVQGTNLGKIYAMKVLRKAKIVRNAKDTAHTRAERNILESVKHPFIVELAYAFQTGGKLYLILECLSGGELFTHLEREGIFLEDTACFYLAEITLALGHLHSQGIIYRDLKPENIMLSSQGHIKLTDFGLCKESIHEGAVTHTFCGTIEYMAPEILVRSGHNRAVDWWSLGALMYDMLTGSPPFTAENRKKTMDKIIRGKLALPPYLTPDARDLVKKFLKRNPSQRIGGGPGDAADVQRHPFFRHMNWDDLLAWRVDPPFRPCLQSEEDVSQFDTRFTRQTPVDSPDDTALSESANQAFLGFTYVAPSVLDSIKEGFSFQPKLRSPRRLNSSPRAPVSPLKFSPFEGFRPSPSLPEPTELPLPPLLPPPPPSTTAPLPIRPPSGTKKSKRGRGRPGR
assay_readout: inhibition at 1 µM (%)
Give just the number in %; leave the unit off.

For orientation, consider the following solved cases.
{"compound": "FC(F)(F)c1ccc(CNc2ccc(Cc3c[nH]c4ncc(Cl)cc34)cn2)cn1 [pexidartinib]", "quantity_unit": "%", "measured": 7}
{"compound": "COc1ccc(CN2C3CC2CN(c2ccc(-c4cc(OCC(C)(C)O)cn5ncc(C#N)c45)cn2)C3)cn1 [selpercatinib]", "quantity_unit": "%", "measured": 6.63}
{"compound": "C[C@H](Nc1ncnc2nc[nH]c12)c1cc2cccc(Cl)c2c(=O)n1-c1ccccc1 [duvelisib]", "quantity_unit": "%", "measured": 2.47}

Pending compound:
Entry COc1cc2ncnc(Nc3ccc(F)c(Cl)c3)c2cc1NC(=O)/C=C/CN1CCCCC1 [dacomitinib] : reported inhibition at 1 µM = ?
-0.889
